Test: Toxicity in Galleria mellonella larva assessed as larval survival at 50 uM
endpoint: Activity

CCCCCCCCCc1ccccc1C(=O)NS(=O)(=O)c1ccc(I)cc1 Non-Toxic
CCCCCCCCCc1ccccc1C(=O)NS(=O)(=O)C(C)(C)C Non-Toxic
CCCCCCCCCc1ccccc1C(=O)NS(C)(=O)=O Non-Toxic
CCCCCCCCCc1ccccc1C(=O)NS(=O)(=O)c1cccc(Br)c1 Non-Toxic

----------
Give MIC for every item shown.
Tested on: Acinetobacter baumannii
Experiment: Potentiation of colistin-induced antibacterial activity against Acinetobacter baumannii ATCC 15308 assessed as colistin MIC at 50 uM incubated for 20 hrs by susceptibility testing (reference value: 0.25 to 0.5 ug/ml)
Type: functional

stdin: For Acinetobacter baumannii, provide MIC of CCCCCCCCCc1ccccc1C(=O)NS(=O)(=O)c1ccc(Br)cc1 please.
stdout: 2 µg/mL

stdin: Acinetobacter baumannii / MIC / CCCCCCCCCc1ccccc1C(=O)NS(=O)(=O)c1ccc(C(C)(C)C)cc1 : value?
stdout: 0.5 µg/mL

stdin: Record CCCCCCCCCc1ccccc1C(=O)NS(=O)(=O)C(C)(C)C : what is its MIC with Acinetobacter baumannii?
stdout: 0.25 µg/mL

stdin: Requested read-out MIC, target or system Acinetobacter baumannii, entry CCCCCCCCCc1ccccc1C(=O)NS(C)(=O)=O
stdout: 0.125 µg/mL

stdin: // fetch Acinetobacter baumannii MIC for CCCCCCCCCc1ccccc1C(=O)NS(=O)(=O)c1ccc(I)cc1
stdout: 2 µg/mL

stdin: Requested read-out MIC, target or system Acinetobacter baumannii, entry CCCCCCCCCc1ccccc1C(=O)NS(=O)(=O)CCC(F)(F)F
stdout: 0.25 µg/mL

Origin of values: ChEMBL document CHEMBL5335788
